System: 786-0 renal
Assay: NCI tumour cell line growth inhibition, 48 h
reported-property: TGI (µM)
Provide only the numeric value, understood in µM.

{"columns": ["compound", "TGI / µM"],
 "data": [
  ["Cc1ccc([N+](=O)[O-])cc1S(=O)(=O)Nc1ccc(C2=NOC(c3cccs3)C2)cc1 (centres undefined)", 37.7]
]}

QUERY: Specify TGI for COc1ccc(OC)c(C2CCc3c(cnc4nc(N)nc(N)c34)C2)c1 (centres undefined) and stop.
RESULT: 18.3

----------
Tested on: NCI-H226 lung
Assay: NCI tumour cell line growth inhibition, 48 h; in the data active = GI50 below about 0.43 µM; inactive = the rest
Please answer using one outcome listed in active, inactive

Solved entries (count: 5):
{"columns": ["compound", "classification"],
 "data": [
  ["CC1=CCCC2C1(C)CCC(C)C2(C)Cc1cc(O)ccc1O (configuration not stated)", "inactive"],
  ["CC[C@@H](C(=O)[C@H](C)[C@H](O)[C@@H](C)[C@H]1O[C@H]([C@@H](CC)C(=O)N(CC)CC)CC[C@H]1C)C1O[C@]2(C=C[C@@H](O)[C@]3(CC[C@@](C)([C@H]4CC[C@](O)(CC)[C@H](C)O4)O3)O2)[C@H](C)C[C@@H]1C (some centres not stated)", "inactive"],
  ["CCCCCCn1c(-c2ccc(C(=O)O/N=C(\\N)c3ccc4ccccc4c3)cc2)nc(-c2ccccc2)c1-c1ccccc1", "inactive"],
  ["CCCCCCCCCCCCSC1=C(Cl)C(=O)C(OC)=C(OC)C1=O", "inactive"],
  ["Cc1cc(Nc2ncc3c(n2)N(C)C(=O)N(c2cc(NC(=O)c4cccc(C(F)(F)F)c4)ccc2C)C3)n(C)n1", "active"]
]}

QUERY: Check the results log: what was the call for `O=C(Nc1ccc(-n2cc(-c3ccncc3)c(-c3ccc(O)c(Cl)c3)n2)cc1)Nc1ccc(Cl)c(C(F)(F)F)c1` ?
RESULT: inactive

QUERY: Check the results log: what was the call for `CC(=O)Nc1c(I)c(NC(C)=O)c(I)c(C(=O)O)c1I` ?
RESULT: inactive

----------
System: COLO 205 colon
Assay: NCI tumour cell line growth inhibition, 48 h
Items are presented alongside their recorded TGI.

These solved cases illustrate the format of a correct answer.
{"columns": ["compound", "TGI"],
 "data": [
  ["CCOC(=O)NC/C=C/COC1CCCCO1 (stereo not given)", "> 100 µM"],
  ["CN(C)CCCCC(C(=O)CBr)(c1ccccc1)c1ccccc1", "3.95 µM"],
  ["CC1CC/C(=C\\c2ccc(N(C)C)cc2)C2=C1C(c1ccc(N(C)C)cc1)NC(=S)N2 (stereo not given)", "> 100 µM"],
  ["COC(=O)C(C)(C)[C@@H]1OC(=O)N(S(=O)(=O)c2c(C)cc(C)cc2C)[C@H]1C(C)C", "> 100 µM"]
]}

QUERY: Specify TGI for `C[C@]12CC[C@@H]3c4cc(OC(F)F)c(OS(N)(=O)=O)cc4CC[C@H]3[C@@H]1CC[C@@H]2OS(N)(=O)=O` and stop.
RESULT: 21.4 µM

----------
Items are presented alongside their recorded GI50.
System: HS 578T breast
Assay: NCI tumour cell line growth inhibition, 48 h
Where a SMILES comes first, the peptide text is derived from it. Bridges are numbered along the chain shown (N, C = ends). [ ]: non-standard residue; d: D form. The star is where a group is joined. ξ: configuration not given here. ξDab(CH2SO3H) = NC(CCNCS(=O)(=O)O)C(=O)O; Heptanoyl(6-Me) = CC(C)CCCCC(=O)*; Dab = NCC[CH](N)C(=O)O

These solved cases illustrate the format of a correct answer.
{"columns": ["compound", "GI50"],
 "data": [
  ["Cn1nc(C(F)(F)F)cc1-c1c[nH]c(OCc2ccc(Cl)cc2)c(-c2ccc(Cl)c(C(F)(F)F)c2)c1=O", "1070 nM"],
  ["C[C@]12CC[C@@H]3c4cc(O)c(O)cc4CC[C@H]3[C@@H]1CC[C@@H]2O", "1980 nM"],
  ["CC/C(=C(/c1ccc(O)cc1)c1ccc(OCCN)cc1)c1ccccc1", "2820 nM"],
  ["CC(=O)Nc1c(I)c(NC(C)=O)c(I)c(C(=O)O)c1I", "> 100000 nM"],
  ["CCC(C)C1NC(=O)C(CCNCS(=O)(=O)O)NC(=O)C(NC(=O)C(CCNCS(=O)(=O)O)NC(=O)C(NC(=O)C(CCNCS(=O)(=O)O)NC(=O)CCCCC(C)C)C(C)O)CCNC(=O)C(C(C)O)NC(=O)C(CCNCS(=O)(=O)O)NC(=O)C(CCNCS(=O)(=O)O)NC(=O)C(C(C)CC)NC1=O (centres undefined) ({Heptanoyl(6-Me)}-[ξDab(CH2SO3H)]T[ξDab(CH2SO3H)][Dab][ξDab(CH2SO3H)]II[ξDab(CH2SO3H)][ξDab(CH2SO3H)]T; lactam 4-C; configuration not given here)", "7650 nM"],
  ["CCCc1cc(=O)n2c(C(=O)Nc3cccc(C(=O)OCC)c3)c(C(=O)Nc3ccc(F)cc3)sc2n1", "1300 nM"],
  ["N=C(N)SCc1c2ccccc2c(CSC(=N)N)c2ccccc12", "5750 nM"],
  ["C[C@]12CC[C@@H]3c4cc(OC(F)F)c(OS(N)(=O)=O)cc4CC[C@H]3[C@@H]1CC[C@@H]2OS(N)(=O)=O", "1000 nM"],
  ["[Cl][Hg][c]1ccc(Cl)s1", "4410 nM"],
  ["CCCCCCCCCCCC(=O)N1CCN(C(C)=O)CC1", "21500 nM"]
]}

QUERY: Specify GI50 for `COc1ccc(Cn2cc3c(c2-c2ccccc2)CCc2cnoc2-3)cc1OC` and stop.
RESULT: 564 nM

QUERY: Specify GI50 for `COc1ccc(Nc2cc(C)nc(NCc3ccccc3)n2)cc1` and stop.
RESULT: 11000 nM

QUERY: Specify GI50 for N#C[Se]CCN1C(=O)C2C(C1=O)[C@H]1C=C[C@@H]2S1 (some centres undefined) and stop.
RESULT: 1750 nM

QUERY: Specify GI50 for `C[C@@H](NC(=O)/C(C#N)=C/c1ccc([N+](=O)[O-])cc1)c1ccccc1` and stop.
RESULT: 5920 nM
